target.desc: SARS-CoV-2 Spike Protein (S1 Subunit, Fc Tag) (Sino 40591-V02H) (SARS-CoV-2, UniProt P0DTC2 16-685)
protocol.details: Luminex bead assay, antibody supernatant, antigen on microspheres
Overview of reported Binding signal (MFI) across a group of binders:
A number alone suffices; assume MFI.

binder	result.unit	value.observed
mAb10913 (antibody, V domains shown) VH: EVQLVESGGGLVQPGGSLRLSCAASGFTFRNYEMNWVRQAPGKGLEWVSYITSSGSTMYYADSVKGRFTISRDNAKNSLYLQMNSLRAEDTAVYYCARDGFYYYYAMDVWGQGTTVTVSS VL: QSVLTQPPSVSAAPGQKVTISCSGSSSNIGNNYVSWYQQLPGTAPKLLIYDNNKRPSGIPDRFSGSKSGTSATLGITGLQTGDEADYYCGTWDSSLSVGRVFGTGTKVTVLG	MFI	18900
mAb10935 (antibody, V domains shown) VH: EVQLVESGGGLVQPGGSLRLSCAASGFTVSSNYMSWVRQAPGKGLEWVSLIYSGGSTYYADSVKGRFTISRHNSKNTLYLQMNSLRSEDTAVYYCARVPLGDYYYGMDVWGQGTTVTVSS VL: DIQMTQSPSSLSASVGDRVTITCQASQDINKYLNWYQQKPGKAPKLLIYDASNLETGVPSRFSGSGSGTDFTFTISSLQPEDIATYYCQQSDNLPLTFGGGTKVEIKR	MFI	20000
mAb10982 (antibody, V domains shown) VH: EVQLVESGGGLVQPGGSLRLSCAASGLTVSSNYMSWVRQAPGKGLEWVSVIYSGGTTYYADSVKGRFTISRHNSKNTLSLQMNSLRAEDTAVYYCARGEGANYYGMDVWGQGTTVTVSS VL: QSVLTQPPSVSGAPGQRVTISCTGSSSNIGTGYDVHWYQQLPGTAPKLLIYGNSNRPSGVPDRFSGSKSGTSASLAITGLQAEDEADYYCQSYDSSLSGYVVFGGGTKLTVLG	MFI	10800

--- query ---
# input Provide Binding signal (MFI) value for the following binder: mAb10939 (antibody, V domains shown) VH: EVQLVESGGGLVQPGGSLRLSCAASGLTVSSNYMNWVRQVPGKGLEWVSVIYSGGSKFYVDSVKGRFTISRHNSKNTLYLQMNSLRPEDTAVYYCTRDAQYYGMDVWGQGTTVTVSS VL: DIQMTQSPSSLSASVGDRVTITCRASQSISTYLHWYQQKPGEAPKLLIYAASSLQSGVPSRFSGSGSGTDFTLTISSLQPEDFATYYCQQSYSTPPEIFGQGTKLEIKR
# output 18200
